test system: RD cells; conditions: human
measurement-name: CC50

Ask | Data request, read-out CC50, for CNc1nc(N)nc2c1ncn2[C@@H]1O[C@H](CO[P@@](=O)(N[C@@H](C)C(=O)OC(C)C)Oc2ccccc2)[C@@H](O)[C@@]1(C)F
Reply | > 86 µM

###

test: Cytotoxicity in mock infected MES-1 cells (MTT); assay type: cell-based; settings: mock infected MES-1 cells, Table 3A
Please respond with reported CC50 at 3 days for every item in the list.

Ask | Quick one: CC50 at 3 days for CC(C)(CO)C(=O)SCCOP(=O)(NCc1ccccc1)OC[C@H]1O[C@@H](n2cnc3c(=O)[nH]c(N)nc32)[C@](C)(O)[C@@H]1O (stereo partly drawn) [drawing 250] ?
Reply | 82 µM

Ask | For CC(C)OC(=O)[C@H](C)N[P@](=O)(OCC1O[C@@H](n2ccc(=O)[nH]c2=O)[C@](C)(F)[C@@H]1O)Oc1ccccc1 (stereo partly drawn) [drawing 248] , what is its reported CC50 at 3 days?
Reply | > 100 µM

Ask | Fill in the blank: the reported CC50 at 3 days of CNc1nc(N)nc2c1ncn2[C@@H]1O[C@H](CO[P@@](=O)(N[C@@H](C)C(=O)OC(C)C)Oc2ccccc2)[C@@H](O)[C@@]1(C)F [drawing 246] is ____.
Reply | > 100 µM
